System: NCI/ADR-RES
Experiment: NCI tumour cell line growth inhibition, 48 h
Activity calls are given as the source filed them. Cut-off read from the data, not from the text of the source: active = GI50 up to about 1.1 µM and inactive = higher.
Labels: TRUE = active, FALSE = inactive

# compound, label.value
data = [
    ("Nc1ccc2c(c1)Cc1ccccc1-2", "FALSE"),
    ("O=C(CC(=O)Nc1ccccc1)NNC(c1cc(/N=N/c2ccc(Br)cc2)ccc1O)P(O)O (configuration not stated)", "TRUE"),
    ("COc1ccc(-c2cc(O)c3cc(C)cnc3n2)cc1", "FALSE"),
    ("C=C(C)[C@H]1C2=CC(C)=C(O2)[C@@H](O)[C@H](C(=C)C)CCC2=C[C@H]1OC2=O [KALLOLIDE A]", "FALSE"),
    ("Cn1c(=O)oc2cc(Br)ccc21", "FALSE"),
    ("C1CCN2CC3CCCN4CCCC(C2C1)C34 (configuration not stated)", "FALSE"),
    ("COC(=O)/C(=C\\c1ccco1)P(=O)(OC)OC", "FALSE"),
]

* * *

System: PC-3
Assay: NCI tumour cell line growth inhibition, 48 h
The source made the active and inactive calls. No stated cut-off is given here; in the data, active = GI50 up to about 1.1 µM and inactive = higher.
Outcomes: y for active, n for inactive

# compound, label.value
rows = [
    ("COC[C@H]1OC(=O)c2coc3c2[C@@]1(C)C1=C(C3=O)[C@@H]2CCC(=O)[C@@]2(C)C[C@H]1OC(C)=O [WORTMANNIN]", "y"),
    ("CCN(CC)CC(=O)Nc1c(C(N)=O)nnn1Cc1cc(Cl)c(C(=O)c2ccc(Cl)cc2)c(Cl)c1", "n"),
    ("C[C@]1(O)CC(=O)c2c(c(-c3ccc4cc5c(c(O)c4c3O)C(=O)C[C@@](C)(O)C5)c3cccc(O)c3c2O)C1", "n"),
    ("C=C1C(C2(C)C(OC(C)=O)CC(=O)OC(C)(COC(C)=O)C2CC(=O)OC)C(OC=O)C(OC(=O)C(O)C(C)CC)C2(C)C(c3ccoc3)CC(=O)C12O (stereo not drawn)", "n"),
    ("CN(C)CCNc1ccc2c(=O)n(CCN(C)C)c(=O)n3c4ccc([N+](=O)[O-])cc4c(=O)c1c23", "y"),
    ("O=C(CC(=O)Nc1ccccc1)NNC(c1cc(/N=N/c2ccc(Br)cc2)ccc1O)P(O)O (stereo not drawn)", "y"),
    ("CNC(=O)Nc1cc2c3c(c1)CCCN3CCC2", "n"),
    ("O=CC1C(=O)Nc2nc3ccccc3n2C1c1ccccc1 (stereo not drawn)", "n"),
]

* * *

Measured GI50 values are reported for all entries that follow.
Tested on: IGROV-1
Experiment: NCI tumour cell line growth inhibition, 48 h
Calls of active or inactive are those of the source. Cut-off read from the data, not from the text of the source: active = GI50 up to about 1.1 µM and inactive = higher.

# compound, GI50
data = [
    ("C=CCN1C(=O)/C(=C/c2ccccc2)N=C1SC1OC(COC(=O)c2ccccc2)C(OC(=O)c2ccccc2)C1OC(=O)c1ccccc1 (configuration not stated)", "> 100 µM (inactive)"),
    ("Cn1c2c(c3ccccc31)CCN(CCCN1CCN(c3ccccc3)CC1)C2=O", "20.8 µM (inactive)"),
    ("O=C(CC(=O)Nc1ccccc1)NNC(c1cc(/N=N/c2ccc(Br)cc2)ccc1O)P(O)O (configuration not stated)", "9.62 µM (inactive)"),
    ("COc1nc(SC)nc2c1C(O)n1c(nc3ccccc31)S2 (configuration not stated)", "40.9 µM (inactive)"),
    ("CC(C)(C)[C@H]1CO[C@]2(c3ccccc3)[C@@H]3C[C@@H]3C(=O)N12", "> 100 µM (inactive)"),
    ("Cc1ccccc1NC(=O)c1ccc([N+](=O)[O-])cc1", "> 100 µM (inactive)"),
    ("[N-]=[N+]=Nc1c(Cl)c(Cl)nc2ccccc12", "77.6 µM (inactive)"),
]

* * *

System: A498
Test: NCI tumour cell line growth inhibition, 48 h
Activity calls are given as the source filed them. No stated cut-off is given here; in the data, active = GI50 up to about 1.1 µM and inactive = higher.
Classes used: True for active, False for inactive

# compound, label.value
rows = [
    ("Nc1ncnc2c1ncn2[C@@H]1C[C@@H]1CO", "False"),
    ("O=C1C=C2SC3C[C@@]24CC1(O)[N+]1=c2c4c(c(O)c4c2=C(C=N4)CC1)N3", "False"),
    ("COc1cc(C2c3cc4c(cc3OC3(OC)COC(=O)C23)OCO4)cc(OC)c1OC (stereo not drawn)", "True"),
]

* * *

System: RPMI-8226
Assay: NCI tumour cell line growth inhibition, 48 h
Calls of active or inactive are those of the source. No stated cut-off is given here; in the data, active = GI50 up to about 1.1 µM and inactive = higher.

# molecule, GI50
records = [
    ("O=C(Cn1c(=O)oc2ccc(C(=O)c3ccc(F)cc3)cc21)c1ccccc1", "> 100 µM (inactive)"),
    ("CC(C)N1CCOC(c2ccc(O)c(O)c2)C1 (stereo unspecified)", "> 100 µM (inactive)"),
    ("Cc1cc(N(CCC#N)CCC#N)ccc1/C=C(\\NC(=O)/C=C/c1ccccc1)C(=O)NN", "> 100 µM (inactive)"),
    ("Cc1nc2sccn2c1C(=O)NC(=O)Nc1ccc(Cl)cc1", "> 100 µM (inactive)"),
    ("COc1cc(/C=C/C(=N\\NS(=O)(=O)c2ccc(C)cc2)c2sc(NNC(C)=O)nc2C)ccc1O", "> 100 µM (inactive)"),
    ("CN(C)C(=S)/N=C1\\SC(=N\\c2ccccc2)/C(=N/c2ccccc2)N1c1ccc([N+](=O)[O-])cc1", "> 100 µM (inactive)"),
]

* * *

System: HCT-15
GI50 reference
readout.kind: GI50

# compound, system.name, readout.kind, meas.value
records = [
    ("CC(NC(=O)C(NC(=O)CNC(=O)OC(C)(C)C)C(C)C)C(=O)Oc1c(Cl)c(Cl)c(Cl)c(Cl)c1Cl (centres undefined)", "HCT-15", "GI50", "17.5 µM"),
    ("COC[C@H]1OC(=O)c2coc3c2[C@@]1(C)C1=C(C3=O)[C@@H]2CCC(=O)[C@@]2(C)C[C@H]1OC(C)=O", "HCT-15", "GI50", "9.91 µM"),
    ("CCN(CC)CC1CCCCN1CC(=O)N1CC(C)C(=O)Nc2ccccc21 (centres undefined)", "HCT-15", "GI50", "> 100 µM"),
    ("C=CCN1C(=O)/C(=C/c2ccccc2)N=C1SC1OC(COC(=O)c2ccccc2)C(OC(=O)c2ccccc2)C1OC(=O)c1ccccc1 (centres undefined)", "HCT-15", "GI50", "> 100 µM"),
    ("O=C(O)Cn1cnc2c(O)nc(Nc3ccccc3)nc21", "HCT-15", "GI50", "> 100 µM"),
    ("COC(=N)C(C)C", "HCT-15", "GI50", "> 100 µM"),
    ("CN(C)CCNC(=O)c1nc([N+](=O)[O-])cn1C", "HCT-15", "GI50", "> 100 µM"),
    ("CCC1([N+](=O)[O-])CN(N=O)C1", "HCT-15", "GI50", "> 100 µM"),
    ("CC1(C)CC2C(C1=O)C1(C)CCCC2(C)C1=O (centres undefined)", "HCT-15", "GI50", "> 100 µM"),
    ("O=C1/C(=C/c2ccc(OC(=O)c3ccc(Cl)cc3)cc2)CCC/C1=C\\c1ccc(OC(=O)c2ccc(Cl)cc2)cc1", "HCT-15", "GI50", "> 100 µM"),
    ("CCOC(=O)N/N=C(/N)c1cccc([N+](=O)[O-])c1", "HCT-15", "GI50", "> 100 µM"),
    ("[N-]=[N+]=Nc1c(Cl)c(Cl)nc2ccccc12", "HCT-15", "GI50", "> 100 µM"),
    ("COc1ccc(-n2cnc3c(NC(Cc4ccccc4)C(=O)O)ncnc32)cc1 (centres undefined)", "HCT-15", "GI50", "> 100 µM"),
    ("O=c1[nH]cnc2c1ncn2[C@@H]1C[C@H]1CO", "HCT-15", "GI50", "> 100 µM"),
    ("NC(=O)N/N=C/c1ccccc1O", "HCT-15", "GI50", "> 100 µM"),
    ("Nc1ncnc2c1ncn2[C@@H]1C[C@@H]1CO", "HCT-15", "GI50", "> 100 µM"),
    ("CC(=O)OC(CC1(C)C(C)CCC23COC(=O)C2=CCCC31)c1ccoc1 (centres undefined)", "HCT-15", "GI50", "20.4 µM"),
    ("COc1cc2c(cc1OC)C1Cc3ccccc3CN1CCC2 (centres undefined)", "HCT-15", "GI50", "> 100 µM"),
    ("O=C1OC(c2ccccc2)=N/C1=C/NC(CS)C(=O)O (centres undefined)", "HCT-15", "GI50", "> 100 µM"),
    ("CC1(C)OCC2(CO1)CSCCCSCC1(COC(C)(C)OC1)CSCCCSC2", "HCT-15", "GI50", "> 100 µM"),
    ("CCOC(=O)C1(C(=O)OCC)Nc2cccnc2N(C)N1", "HCT-15", "GI50", "18 µM"),
    ("Cc1nc(C(N)=S)sc1C(=O)CC(=O)C(=O)Nc1nc2ccccc2[nH]1", "HCT-15", "GI50", "> 100 µM"),
    ("CN(C)Cc1ccc(O)c(CN(C)C)n1", "HCT-15", "GI50", "> 100 µM"),
    ("COc1ccc2nc3ccc(OC)cc3c([S+]([O-])Cc3ccccc3)c2c1 (centres undefined)", "HCT-15", "GI50", "6.61 µM"),
    ("O=C(c1ccccc1)C1C(c2ccccc2[N+](=O)[O-])N1C1CCCCC1 (centres undefined)", "HCT-15", "GI50", "3.52 µM"),
    ("O=C1NC(=O)C2C1c1[nH]c3ccccc3c1C1CCCC12 (centres undefined)", "HCT-15", "GI50", "1.49 µM"),
    ("Cc1nc(O)nc2nc3ccc(Cl)cc3c(N(CCO)CCO)c12", "HCT-15", "GI50", "94.4 µM"),
    ("CC1CCCP(=O)(c2ccccc2)CCC1 (centres undefined)", "HCT-15", "GI50", "> 100 µM"),
    ("C[C@@H](NC(C#N)c1ccco1)c1ccccc1 (some centres undefined)", "HCT-15", "GI50", "> 100 µM"),
    ("c1cc2ccc3cc4ncccc4c4ccc(c1)c2c34", "HCT-15", "GI50", "7.73 µM"),
    ("COc1cc(CCCC(O)COc2cccc3c2C2(O)CCCCCC32)cc(OC)c1 (centres undefined)", "HCT-15", "GI50", "17.6 µM"),
    ("CCCCCCCCCCCC(=O)NCc1ccc(OC(=O)CCCCCCCCCCC)c(OC)c1", "HCT-15", "GI50", "> 100 µM"),
    ("CCOC(=O)C1(C(=O)OCC)C(C(C)(C)C)=C(C)c2ccccc21", "HCT-15", "GI50", "13.7 µM"),
    ("O=C(CC(O)(C(F)(F)F)C(F)(F)Cl)CC(O)(C(F)(F)F)C(F)(F)Cl (centres undefined)", "HCT-15", "GI50", "1.79 µM"),
    ("COc1ccc(C(=O)N2CCN(c3ccc4[nH]c(=O)oc4c3)CC2)cc1", "HCT-15", "GI50", "> 100 µM"),
    ("COc1cc(C2C=C(c3ccccc3)Oc3cc4c(cc32)OCO4)cc(OC)c1OC (centres undefined)", "HCT-15", "GI50", "0.324 µM"),
    ("CCOC(=O)c1c(-c2ccc(Cl)cc2)c(C#N)c(=S)n(C2OC(COC(C)=O)C(OC(C)=O)C(OC(C)=O)C2OC(C)=O)c1C (centres undefined)", "HCT-15", "GI50", "> 100 µM"),
    ("C/C(=N\\Nc1nc2ccccc2o1)c1cc2ccccc2cn1", "HCT-15", "GI50", "< 0.01 µM"),
    ("O=C(CSCC(=O)N/N=C\\c1cccc(Br)c1)N/N=C\\c1cccc(Br)c1", "HCT-15", "GI50", "21.2 µM"),
]
